Reference source for all entries: ChEMBL document CHEMBL5537163

test system: MOLM-13; assay: Antiproliferative activity against human MOLM-13 cells assessed as inhibition of cell proliferation incubated for 72 hrs by CellTiterGlo luminescence assay; type: functional, cell-based; settings: MOLM-13, 72 h
property: pIC50
Please express pIC50 as -log10 of the molar concentration.

Endpoint output: pIC50 of CCNC(=O)c1cc2c(-c3cc(C(C)(C)O)ccc3Oc3c(C)cc(F)cc3C)cn(C)c(=O)c2[nH]1 . Value?
7.41

###

target: Voltage-gated inwardly rectifying potassium channel KCNH2 (Homo sapiens, UniProt Q12809); assay: Inhibition of hERG expressed in HEK293 cells at -80 mV holding potential by whole-cell patch clamp technique; format: toxicity, cell-based
Sequence (Q12809 whole entry): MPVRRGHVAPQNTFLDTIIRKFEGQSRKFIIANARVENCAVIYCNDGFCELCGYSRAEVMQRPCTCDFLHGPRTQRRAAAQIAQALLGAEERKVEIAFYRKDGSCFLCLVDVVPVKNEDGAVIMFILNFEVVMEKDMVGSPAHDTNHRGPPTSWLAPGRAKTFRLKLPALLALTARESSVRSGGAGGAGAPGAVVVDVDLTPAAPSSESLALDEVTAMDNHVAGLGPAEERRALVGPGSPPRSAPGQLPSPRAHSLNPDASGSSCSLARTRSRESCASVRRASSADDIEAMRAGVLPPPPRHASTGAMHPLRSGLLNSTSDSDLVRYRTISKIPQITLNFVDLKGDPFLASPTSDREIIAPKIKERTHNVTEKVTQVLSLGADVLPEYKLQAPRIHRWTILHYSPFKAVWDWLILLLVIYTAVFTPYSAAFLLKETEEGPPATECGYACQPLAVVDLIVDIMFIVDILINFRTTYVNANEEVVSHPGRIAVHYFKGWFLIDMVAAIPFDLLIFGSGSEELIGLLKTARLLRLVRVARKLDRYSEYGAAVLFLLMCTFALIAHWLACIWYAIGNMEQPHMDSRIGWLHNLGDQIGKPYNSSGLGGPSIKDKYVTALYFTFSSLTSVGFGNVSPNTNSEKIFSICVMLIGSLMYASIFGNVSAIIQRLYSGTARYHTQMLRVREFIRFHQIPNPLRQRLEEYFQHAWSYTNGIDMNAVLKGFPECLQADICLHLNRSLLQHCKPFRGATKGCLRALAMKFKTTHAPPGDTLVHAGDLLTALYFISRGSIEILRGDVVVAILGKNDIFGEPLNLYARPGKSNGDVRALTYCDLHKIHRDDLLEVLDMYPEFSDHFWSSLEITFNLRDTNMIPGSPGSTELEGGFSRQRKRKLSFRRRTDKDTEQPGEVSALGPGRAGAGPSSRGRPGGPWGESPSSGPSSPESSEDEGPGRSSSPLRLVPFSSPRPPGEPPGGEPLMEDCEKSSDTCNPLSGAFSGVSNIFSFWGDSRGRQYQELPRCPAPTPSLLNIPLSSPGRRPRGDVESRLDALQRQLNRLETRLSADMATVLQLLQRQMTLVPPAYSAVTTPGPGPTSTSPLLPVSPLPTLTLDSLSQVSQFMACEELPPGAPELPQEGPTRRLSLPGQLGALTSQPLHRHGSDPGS
property: IC50 (µM)
Number in µM, nothing else.

Enter reported IC50 observed with Voltage-gated inwardly rectifying potassium channel KCNH2 (Homo sapiens, UniProt Q12809) for CCNC(=O)c1cc2c(-c3cc(C(C)(C)O)ccc3Oc3c(C)cc(F)cc3C)cn(C)c(=O)c2[nH]1
3.1
